As shown below, each of these compounds has a reported growth value.
tested on: HOP-92 NSCLC; assay: NCI-60 one-dose screen, 48 h (100 = growth as untreated, 0 = no growth, -100 = all killed); settings: 10 µM unless noted
The panel holds about 83,000 compounds, 20% with a hit somewhere; the sample as a whole holds those more often. The source made the active and inactive calls. How the source made its calls: active means growth percent below 10; inactive means the rest.

Compound	growth
CC(C)(C)C1CCC(=NO)CC1 (stereo not drawn)	71.4% (inactive)
CCOC(=O)c1ccc(C(=N)N)cc1	80.2% (inactive)
CN1C2C=CC(=O)C1C1C(=O)N(c3ccccc3)C(=O)C12 (stereo not drawn)	32.3% (inactive)
O=c1[nH]c(=S)[nH]n1C(=S)n1[nH]c(=S)[nH]c1=O	82.2% (inactive)
CC(=O)C[n+]1ccccc1Sc1ccc(Cl)cc1	98.8% (inactive)
Cc1cc(NC(=O)NC(=O)c2ccccc2N(C)C)ccc1Oc1ncc(Br)cn1	57.5% (inactive)
CCCC(=O)Oc1ccc(CC)cc1	115% (inactive)
COc1ccc(COC=O)cc1	109% (inactive)
O=c1[nH]c(=O)n(C2OC(CO)C(O)C2O)cc1I (stereo not drawn)	77.7% (inactive)
O=c1ccn2c(n1)OC1CC2OC1COC(c1ccccc1)(c1ccccc1)c1ccccc1 (stereo not drawn)	72.4% [100 µM] (inactive)
Cc1cnc(N)s1	91.3% (inactive)
O=S(=O)(O)c1ccc2cc(O)ccc2c1	88.8% (inactive)
CCOc1ccc(/C=C\C(=O)O)cc1	86.9% (inactive)

----------
system: SW-620 colon; test: NCI-60 one-dose screen, 48 h (100 = growth as untreated, 0 = no growth, -100 = all killed); conditions: 10 µM unless noted
The panel holds about 83,000 compounds, 20% with a hit somewhere; the sample as a whole holds those more often. Active and inactive are the calls of the source. The calls were made as follows: active = growth percent below 10; inactive = the rest.

Compound	Tgt	growth
CC(NC(=O)CCl)c1ccccc1 (centres undefined)	SW-620 colon	96.4% (inactive)
COC(=O)c1nc(N)nc(C(=O)OC)c1C(=O)c1cccc2ccccc12	SW-620 colon	118% (inactive)
CCOc1ccc(/C=C\C(=O)O)cc1	SW-620 colon	101% (inactive)
CC1NC(C)c2ccc3ccccc3c2O1 (centres undefined)	SW-620 colon	111% (inactive)
COCCCNC1=C(C#N)C(=O)NC(c2cccs2)S1 (centres undefined)	SW-620 colon	113% (inactive)
O=[N+]([O-])c1cccc(N=Cc2ccccc2)c1	SW-620 colon	117% (inactive)
CC(=O)Nc1cscc1NC(C)=O	SW-620 colon	97.6% (inactive)
CCOC(=O)c1ccncc1	SW-620 colon	104% (inactive)
COc1ccc(CCO)cc1	SW-620 colon	104% (inactive)
O=[N+]([O-])c1ccc(NC(c2ccccc2)c2ccc3cccnc3c2O)cc1 (centres undefined)	SW-620 colon	23.9% (inactive)
CC(C)(C)OC(=O)c1ccc(NCc2cc(O)ccc2O)cc1	SW-620 colon	18.9% (inactive)
CC1=CC(=O)C=CC1=Nc1ccc(N(C)C)cc1	SW-620 colon	105% (inactive)
O=C(O)C#Cc1ccc(Cl)cc1	SW-620 colon	96.8% (inactive)
COC(=O)CCOc1ccccc1	SW-620 colon	107% (inactive)

----------
system: NCI-H460 lung; experiment: NCI-60 one-dose screen, 48 h; conditions: 10 µM unless noted
About 83,000 compounds went through this panel and 20% of them were active in at least one assay; those are over-represented in the sample as a whole. Calls of active or inactive are those of the source. How the source made its calls: active means growth percent below 10; inactive means the rest.
Outcome codes: class 1 (active), class 0 (inactive)

Compound	Category label
ON=C(C1CCCCC1)C1CCCCC1	class 0
O=C1C2=C(Nc3cc(Cl)ccc3N2)OC1c1c[nH]c2ccc(COc3ccccc3)cc12 (configuration not stated)	class 0
CCN(C)c1ccccc1	class 0
N#CC(=S)Nc1ccc(Cl)c(Cl)c1	class 1
O=c1[nH]c(=O)c2[nH]c(=O)[nH]c2[nH]1	class 0
COc1cc2c(cc1O)C(=O)CCCC2	class 0
C/C(=C\c1ccccc1)C(O)C(=O)c1nc2ccc([N+](=O)[O-])cc2[nH]c1=O (configuration not stated)	class 0
CCc1ccccc1-n1[nH]c(C)c(C=N)c1=O	class 0
C/C(CC(C)C)=N/NC(N)=S	class 0
Clc1ccc2c(c1)N(C1CCCN(Cc3ccccc3)C1)c1ccccc1S2 (configuration not stated)	class 0
O=C(c1ccncc1)c1c(Cc2ccccc2)ccc2ccccc12	class 0
CCN(CC)C(CC(=O)c1ccccc1)C(=O)c1ccccc1 (configuration not stated)	class 0
Cc1c(Cl)cc(Cl)c(N)c1Cl	class 0
CN1C2C=CC(=O)C1C1C(=O)N(c3ccccc3)C(=O)C12 (configuration not stated)	class 0
COc1ccc(CCN=Cc2ccc(Cl)cc2)cc1OC	class 0
O=C1c2cccnc2-c2ncccc21	class 0
CC(C)(C)C1=CC(=O)C(C(C)(C)C)=CC1=O	class 0
O=[N+]([O-])c1cccc(N=Cc2ccccc2)c1	class 0
OCCS	class 0
Cc1cc2ccccc2c2cc3ccccc3cc12	class 0
O=C(N=C1C(=O)C2(CCCCC2)C2(N=C(c3ccccc3)OC2=O)C12CCCCC2)c1ccccc1 (configuration not stated)	class 0
COc1ccc(/C=N/Nc2nc3ccccc3s2)cc1	class 0
CC(C)=NOC(C)C(=O)O (configuration not stated)	class 0
CC(C)(C)OC(=O)CC1(O)CCCCC1	class 0
CCCCCCC(C)CC1=C(O)c2ccccc2C(=O)C1=O (configuration not stated)	class 0
Oc1ccc(O)c(-c2ccccc2)c1	class 0
CS(=O)(=O)c1nsc(N)n1	class 0
